Ref: the supplement of paper PMC13380429

The entries below come with measured inhibition of SARS-CoV-2 cytopathic effect values attached.
Tested on: Vero E6 infected with SARS-CoV-2
Experiment: inhibition of SARS-CoV-2 cytopathic effect; higher = more antiviral protection, active = above 15
Settings: 833.33 nM; 48 h
The reply should be a number in %, with the unit left off.

Examples from the recorded data:
O=C(O)CNC(=O)c1c(O)c2ccccc2n(Cc2ccccc2)c1=O    -0.62
COc1ccc(OC)c2c(=S)c3ccccc3[nH]c12    1.44

Read the next record carefully.
Query: inhibition of SARS-CoV-2 cytopathic effect; subject: CN(Cc1cnc2nc(N)nc(N)c2n1)c1ccc(C(=O)N[C@@H](CCC(=O)O)C(=O)O)cc1 [methotrexate] 2

====

Tested on: Vero E6 infected with SARS-CoV-2
Test: inhibition of SARS-CoV-2 cytopathic effect; higher = more antiviral protection, active = above 15
Settings: 1 nM; 48 h
Property: inhibition of SARS-CoV-2 cytopathic effect; scope: individual compounds
Give just the numeric value; % need not be written.

Worked examples, 4 compounds total:
COc1ccc(/C=C/C(=O)/C=C(O)/C=C/c2ccc(OC)c(OC)c2)cc1OC    1.2
Cc1cccc(Oc2nc3c(C)cccn3c(=O)c2/C=C(\C#N)c2nc3ccccc3s2)c1    -0.1
Cc1ccc(Oc2ccccc2-c2csc(N=C3NCCCN3)n2)c(C)c1    2.5
CCN(CC)CCNC(=O)c1cc(Br)c(N)cc1OC [bromopride]    -3.41

Quick one: inhibition of SARS-CoV-2 cytopathic effect for CC(/C=C1\SC(=S)N(CC(=O)O)C1=O)=C\c1ccccc1 ? -1.25

====

// values below are reported inhibition of SARS-CoV-2 cytopathic effect
Tested on: Vero E6 infected with SARS-CoV-2
Assay: inhibition of SARS-CoV-2 cytopathic effect; higher = more antiviral protection, active = above 15
Conditions: 8.33 nM; 48 h
Give the value in % but do not write % after it.

Past entries and their recorded results:
O=c1c(-c2ccc(O)cc2)coc2cc(O)ccc12    0.3
C[N+](C)(C)[C@@H](Cc1c[nH]c(=S)[nH]1)C(=O)O    -1.22
CC(C)n1nccc1-c1ncccc1COc1cccc(O)c1C=O    -1.17
Cn1ncc(Cl)c1-c1cc(C(=O)N[C@H](CN)Cc2ccc(F)c(F)c2)oc1Cl    -0.16
CCOc1cc(C=O)ccc1O    2.03

Would you mind telling me what inhibition of SARS-CoV-2 cytopathic effect value was observed for NNc1nncc2ccccc12 [hydralazine] ? 0.28

====

Tested on: Vero E6 infected with SARS-CoV-2
Assay: morphology score (similarity to uninfected cells); higher = more like uninfected cells
Conditions: 24 h
Label condition not met if morphology score falls below 0.07; label condition met in every other case.

CC(C)(O)CC(=O)O [beta-hydroxy-beta-methylbutyrate] (10 µM)    condition not met
CC(C)CCC[C@@H](C)[C@H]1CC[C@H]2[C@@H]3CCC4=CC(=NO)CC[C@]4(C)[C@H]3CC[C@]12C [olesoxime] (10 µM)    condition not met
CC(=O)c1ccc(NS(C)(=O)=O)c(Oc2ccc(F)cc2F)c1 (10 µM)    condition met
Cc1cc(C(N)=O)ccc1-n1c(CCC(=O)O)ccc1-c1ccc(-n2ccnc2)cc1 (10 µM)    condition not met
C=C1CCN([C@H](C)[C@](O)(Cn2cncn2)c2ccc(F)cc2F)CC1 [efinaconazole] (10 µM)    condition met

State whether the measured morphology score reaches 0.07, counting equality as reaching it, for Nc1nc(Nc2ccc(S(N)(=O)=O)cc2)nn1C(=O)c1c(F)cccc1F (0.833333 µM) condition not met

Also Cn1cc(-c2ccc3nnc(C(F)(F)c4ccc5ncccc5c4)n3n2)cn1 (10 µM) ? condition met

Continue with CCOc1ccc(C(=O)OCCN(CC)CC)cc1 [parethoxycaine] (10 µM) condition met

For COc1ccc(-c2c(C)c(C(=O)NN3CCCCC3)nn2-c2ccc(Cl)cc2Cl)cc1 (10 µM) then? condition met

Request: CCCc1nc2c(C)cc(-c3nc4ccccc4n3C)cc2n1Cc1ccc(-c2ccccc2C(=O)O)cc1 [telmisartan] (10 µM) condition met

Then N[C@@H](CCC(=O)N[C@@H](CSN=O)C(=O)NCC(=O)O)C(=O)O [S-nitrosoglutathione] (10 µM) ? condition met

Follow-up entry: O=C(/C=C/c1ccc(O)c(O)c1)OCCc1ccccc1 [caffeic-acid-phenethyl-ester] (10 µM) condition not met
